B1: MMP1 (parent)
chain: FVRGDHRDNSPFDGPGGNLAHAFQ

variants of: B1; experiment: protein stability index of a GFP-peptide fusion (GPS, HEK-293T) (PSI 1-6); higher = more stable; conditions: c terminus: a fixed tail appended;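 also: lentivirally expressed fusions sorted by FACS into six bins by GFP to DsRed ratio, PSI derived from sequencing read proportions per bin multiplied by bin number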
protein stability index of 2 or higher: Condition met. Under 2: Condition not met.

HVRGDHRDNSPFDGPGGNLAHAFQ Condition met

Answer whether protein stability index of FVRGDHRDNSPFDGFGGNLAHAFQ is greater than or equal to 2.
Condition met

Param item: FVRGDHRDNSPFGGPGGNLAHAFQ
Condition met

Param item: FMRGDHRDNSPFDGPGGNLAHAFQ
Condition met

Param item: FVRGDHRDNSPFDGPGGNLACAFQ
Condition met

Param item: FVRGDHRDNSPFDGPGGNRAHAFQ
Condition not met

Param item: FVRGDTRDNSPFDGPGGNLAHAFQ
Condition not met

Param item: LVRGDHRDNSPFDGPGGNLAHAFQ
Condition met

Param item: FVRGDMRDNSPFDGPGGNLAHAFQ
Condition met
